Molecular target: T1, human B7-H4 (human, UniProt Q7Z7D3 29-282)
T1 construct: On stably transfected 293 cells (recombinant) or on MX-1 / SKBR3 tumor cells (endogenous); the cell is named under assay; also called huB7-H4; hB7-H4
T1 sequence: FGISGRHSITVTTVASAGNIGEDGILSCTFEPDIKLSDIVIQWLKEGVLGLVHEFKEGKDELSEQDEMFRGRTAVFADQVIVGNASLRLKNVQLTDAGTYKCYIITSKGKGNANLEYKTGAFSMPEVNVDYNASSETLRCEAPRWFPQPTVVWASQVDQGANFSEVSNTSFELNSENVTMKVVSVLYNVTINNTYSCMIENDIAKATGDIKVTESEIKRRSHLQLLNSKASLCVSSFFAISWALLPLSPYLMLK
Test: Scatchard analysis, 125I-antibody radioligand cell binding on MX-1 tumor cells
test-readout: Kd (nM)
Give bare numbers, in nM.

# example entries with known answers
INSERT INTO assay_data (binder, experimental_value) VALUES
  ('humanized 22C10.v2.8 (antibody, V domains shown, Assessed in the form of an IgG produced in 293 cells; also called hu22C10.v2.8; h22C10.v2.8) VH: EVQLVQSGAEVKKPGASVKVSCKASGYTFTNFWIHWVRQAPGQGLEWIGEIDPSDSYTNYNQKFKGRVTITRDTSTSTAYLELSSLRSEDTAVYYCAREITTVDYWGQGTLVTVSS VL: DIQMTQSPSSLSASVGDRVTITCSATSSISYMHWYQQKPGKAPKGLIYDTSKLAHGVPSRFSGSGSGTDFTLTISSLQPEDFATYYCHQRRSYPFTFGQGTKVEIK', 10),
  ('humanized 1D11.v1.7 (antibody, V domains shown, also called hu1D11.v1.7; h1D11.v1.7) VH: EVQLVQSGAEVKKPGASVKVSCKASGYTFTSYWIGWVRQAPGQGLEWIGDIYPGGGYTNYNEKFKGRATLTRDTSTSTAYLELSSLRSEDTAVYYCARLDGSSYRGAMDSWGQGTLVTVSS VL: DIQMTQSPSSLSASVGDRVTITCKASQGFNKYVAWYQQKPGKAPKLLIYYTSTLQPGVPSRFSGSGSGRDYTLTISSLQPEDFATYYCLQYGNLLYAFGQGTKVEIKR', 8.3),
  ('chimeric antibody ch1D11 (antibody, human IgG1, V domains shown, also called parental 1D11 antibody; antibody 1D11) VH: QVQLQQSGAELVRPGTSVKMSCKASGYTFTSYWIGWAKQRPGHGFEWIGDIYPGGGYTNYNEKFKGKATLTADKSSSTAYMQFSSLTSEDSAIYYCARLDGSSYRGAMDSWGQGTSITVSS VL: DIQMTQSPSSLSASLGGKVTITCKASQGFNKYVAWYQHKPGQCPRLLIHYTSTLQPGIPARFSGSGSGRDYSFSISNLEPEDSATYFCLQYGNLLYAFGGGTKLEIKR', 7.8);

For each of the binders below, note its Kd.
1. chimeric antibody ch22C10 (antibody, human IgG1, V domains shown, also called ch2210; parental 22C10 antibody) VH: QVQLQQPGAELVKPGTSVKLSCKASGYTFTNFWIHWVIQRPGQGLEWIGEIDPSDSYTNYNQKFKGKATLTVDKSSNTAYMQLSSLTSEDSAVYYCSREITTVDYWGQGTTLTVSS VL: QIVLTQSPTIMSASPGEKVTLTCSATSSISYMHWYQQKPGTSPKGWIYDTSKLAHGVPARFSGSGSGTSYSLTISSMEAEDAATYYCHQRRSYPFTFGSGTKLEIK
2. humanized 1D11.v1.8 (antibody, V domains shown, also called hu1D11.v1.8; h1D11.v1.8) VH: EVQLVQSGAEVKKPGASVKVSCKASGYTFTSYWIGWVRQAPGQGLEWIGDIYPGGGYTNYNEKFKGRATITRDTSTSTAYLELSSLRSEDTAVYYCARLDGSSYRGAMDSWGQGTLVTVSS VL: DIQMTQSPSSLSASVGDRVTITCKASQGFNKYVAWYQQKPGKAPKLLIYYTSTLQPGVPSRFSGSGSGRDYTLTISSLQPEDFATYYCLQYGNLLYAFGQGTKVEIKR

Result ::
1: 4.9; 2: 8.7
